TEST METHOD NOTES: Drug level in nude mouse plasma at 50 mg/kg, po after 4 hrs
Type: ADME, organism-based
Design: dose 50 mg/kg, route oral
ATTRIBUTE MEASURED: concentration at 4 h (ng/mL)

COc1cc(Nc2c(C#N)cnc3cc(NCCCN4CCN(C)CC4)c(OC)cc23)c(Cl)cc1Cl :: 790

[A] COc1cc(Nc2c(C#N)cnc3cc(NCCCN(C)C)c(OC)cc23)c(Cl)cc1Cl
[B] COc1cc(Nc2c(C#N)cnc3cc(OCCCN4CCN(C)CC4)c(OC)cc23)c(Cl)cc1Cl [BOSUTINIB]
So which one has the bigger concentration at 4 h here, A or B ? Pick one; state its label. B
